Assay: amyloid nucleation score (Sup35N fusion, yeast selection) (log enrichment); library NNK1; higher = more nucleation; inactive = no reads after selection;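 further: zero at mode of non-aggregating sequences after 7 days selection at 30°C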
# binarize amyloid nucleation score: threshold -0.1 inclusive, high side satisfied, low side not satisfied

Ask: Does amyloid nucleation score meet or surpass -0.1 for KRTLYSSIRF ?
Result: satisfied

Ask: Does amyloid nucleation score meet or surpass -0.1 for ESLREVTLYATKSLWMNLRL ?
Result: not satisfied

Ask: Does amyloid nucleation score meet or surpass -0.1 for CTMSTSMPHRAVRRELSSIE ?
Result: satisfied

Ask: Does amyloid nucleation score meet or surpass -0.1 for DAGNVLARLDGFNAG ?
Result: not satisfied

Ask: Does amyloid nucleation score meet or surpass -0.1 for TGRSIMPLSYRTYCIDEFVS ?
Result: satisfied

Ask: Does amyloid nucleation score meet or surpass -0.1 for SEGKHNCKLT ?
Result: not satisfied

Ask: Does amyloid nucleation score meet or surpass -0.1 for TFTGDKIPIYSGVTVMASGM ?
Result: satisfied

Ask: Does amyloid nucleation score meet or surpass -0.1 for FQSISGFSATHWIFFMEGTY ?
Result: satisfied

Ask: Does amyloid nucleation score meet or surpass -0.1 for CFEDRYSLRCGM ?
Result: not satisfied

Ask: Does amyloid nucleation score meet or surpass -0.1 for SRVEWEDVYENVGGKGTSRE ?
Result: satisfied

Ask: Does amyloid nucleation score meet or surpass -0.1 for NFFCDSISY ?
Result: not satisfied

Ask: Does amyloid nucleation score meet or surpass -0.1 for LMEIFLNLPPANKNSYNRR ?
Result: not satisfied

Ask: Does amyloid nucleation score meet or surpass -0.1 for RTVQSGHSSARCKIIGPYHD ?
Result: satisfied

Ask: Does amyloid nucleation score meet or surpass -0.1 for QRVGCKW ?
Result: not satisfied

Ask: Does amyloid nucleation score meet or surpass -0.1 for VSILSRI ?
Result: not satisfied

Ask: Does amyloid nucleation score meet or surpass -0.1 for FNVALFMEI ?
Result: satisfied

Ask: Does amyloid nucleation score meet or surpass -0.1 for CDFRIFRLSVPGTYYVCDWL ?
Result: satisfied

Ask: Does amyloid nucleation score meet or surpass -0.1 for KFRESFLT ?
Result: not satisfied

Ask: Does amyloid nucleation score meet or surpass -0.1 for IKATGTRPRIHRYFGNC ?
Result: not satisfied

Ask: Does amyloid nucleation score meet or surpass -0.1 for QNHSGPGLMIRILANAQKWF ?
Result: not satisfied

Ask: Does amyloid nucleation score meet or surpass -0.1 for SCLPGPKRFL ?
Result: satisfied

Ask: Does amyloid nucleation score meet or surpass -0.1 for GTWLSMLDSSV ?
Result: not satisfied

Ask: Does amyloid nucleation score meet or surpass -0.1 for PSGTGWRLDGSV ?
Result: satisfied

Ask: Does amyloid nucleation score meet or surpass -0.1 for IDMTQGMRLQWMFNRALLCW ?
Result: satisfied

---

Hi there, I'd appreciate the recorded amyloid nucleation score for every entry that follows.
Experiment: amyloid nucleation score (Sup35N fusion, yeast selection) (log enrichment); library NNK1; higher = more nucleation; inactive = no reads after selection
Just the number, please, no unit after it.

Ask: // query amyloid nucleation score value for entry TSYVMPEGFAVGFKMSM
Result: 0.205

Ask: // query amyloid nucleation score value for entry SEMPIFYLWDPQSGQRSWDG
Result: 0.036

Ask: // query amyloid nucleation score value for entry WKCWGLCHLQR
Result: -1

Ask: // query amyloid nucleation score value for entry LFLGLPELVQNSLDMLVSLW
Result: 0.217

Ask: // query amyloid nucleation score value for entry AGLVYEIKWYYADL
Result: -0.482

Ask: // query amyloid nucleation score value for entry VKVCHSPKTSYDTVISRGNL
Result: 0.459

Ask: // query amyloid nucleation score value for entry RDIYRVYNV
Result: -1.05

Ask: // query amyloid nucleation score value for entry SNGIQPMERI
Result: -1.01
